System: BXPC-3
protocol: Cytotoxicity against BxPC3 cells at 5 uM by [3H]thymidine inhibition assay
Format: functional, cell-based
stated.conditions: Homo sapiens
Where a SMILES comes first, the peptide text is derived from it. [ ]: non-standard residue; d: D form. NMeL = CN[C@@H](CC(C)C)C(=O)O; dNMeL = CN[C@H](CC(C)C)C(=O)O; dNMeV = CN[C@@H](C(=O)O)C(C)C; dAbu = CC[C@@H](N)C(=O)O

>  <molecule>
CC(C)C[C@@H]1NC(=O)[C@H](Cc2ccccc2)NC(=O)[C@H](CC(C)C)NC(=O)[C@@H](C(C)C)NC(=O)[C@H](CC(C)C)NC1=O (cyclo(FLL[dV]L))

>  <inhibition at 5 µM, %>
50

$$$$
>  <molecule>
CC(C)C[C@@H]1NC(=O)[C@H](Cc2ccccc2)NC(=O)[C@H](CC(C)C)NC(=O)[C@@H](C(C)C)N(C)C(=O)[C@H](CC(C)C)NC1=O (cyclo(FLL[dNMeV]L))

>  <inhibition at 5 µM, %>
34

$$$$
>  <molecule>
CC(C)C[C@@H]1NC(=O)[C@H](CC(C)C)NC(=O)[C@H](Cc2ccccc2)NC(=O)[C@@H](Cc2ccccc2)NC(=O)[C@H](CC(C)C)NC1=O

>  <inhibition at 5 µM, %>
21

$$$$
>  <molecule>
CC(C)C[C@@H]1NC(=O)[C@H](C(C)C)NC(=O)[C@@H](CC(C)C)NC(=O)[C@@H](CC(C)C)NC(=O)[C@H](Cc2ccccc2)NC1=O (cyclo(F[dL][dL]VL))

>  <inhibition at 5 µM, %>
78

$$$$
>  <molecule>
CC(C)C[C@@H]1NC(=O)[C@H](C(C)C)NC(=O)[C@H](CC(C)C)NC(=O)[C@@H](CC(C)C)NC(=O)[C@H](Cc2ccccc2)NC1=O (cyclo(F[dL]LVL))

>  <inhibition at 5 µM, %>
29

$$$$
>  <molecule>
CC(C)C[C@@H]1NC(=O)[C@@H](C(C)C)N(C)C(=O)[C@H](CC(C)C)NC(=O)[C@@H](CC(C)C)NC(=O)[C@H](Cc2ccccc2)NC1=O (cyclo(F[dL]L[dNMeV]L))

>  <inhibition at 5 µM, %>
35

$$$$
>  <molecule>
CC[C@H]1NC(=O)[C@H](CC(C)C)NC(=O)[C@H](CC(C)C)NC(=O)[C@H](Cc2ccccc2)NC(=O)[C@H](CC(C)C)NC1=O (cyclo(FLL[dAbu]L))

>  <inhibition at 5 µM, %>
17

$$$$
>  <molecule>
CC(C)C[C@@H]1NC(=O)[C@H](Cc2ccccc2)NC(=O)[C@H](CC(C)C)NC(=O)[C@H](C(C)C)NC(=O)[C@@H](CC(C)C)NC1=O (cyclo(FL[dL]VL))

>  <inhibition at 5 µM, %>
74

$$$$
>  <molecule>
CC(C)C[C@@H]1NC(=O)[C@H](C(C)C)NC(=O)[C@H](CC(C)C)NC(=O)[C@H](CC(C)C)N(C)C(=O)[C@H](Cc2ccccc2)NC1=O (cyclo(F[NMeL]LVL))

>  <inhibition at 5 µM, %>
59

$$$$
>  <molecule>
CC(C)C[C@@H]1NC(=O)[C@H](C(C)C)NC(=O)[C@H](CC(C)C)NC(=O)[C@@H](CC(C)C)N(C)C(=O)[C@H](Cc2ccccc2)NC1=O (cyclo([dNMeL]LVLF))

>  <inhibition at 5 µM, %>
51

$$$$
>  <molecule>
CC(C)C[C@@H]1NC(=O)[C@H](Cc2ccccc2)NC(=O)[C@@H](CC(C)C)N(C)C(=O)[C@H](CC(C)C)NC(=O)[C@H](CC(C)C)NC1=O

>  <inhibition at 5 µM, %>
2

$$$$

These entries and their values trace back to ChEMBL document CHEMBL1146254.
